Molecular target: UniProtKB P01375
Sequence (P01375 77-233 limits assumed): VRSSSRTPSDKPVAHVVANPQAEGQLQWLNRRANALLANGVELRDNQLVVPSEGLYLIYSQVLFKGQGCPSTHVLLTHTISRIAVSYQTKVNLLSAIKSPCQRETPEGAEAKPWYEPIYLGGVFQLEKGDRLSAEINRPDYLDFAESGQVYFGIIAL
Assay: TNF induced HEK-Blue assay (NF-kB-driven secreted alkaline phosphatase reporter)
Format: cell-based
Conditions: TNFα 0.5 ng/mL, HEK-Blue-CD40L cells, 18 h; read-out: TNF induced HEK-Blue assay IC50 value
ASSAY METRIC: IC50

MOLECULE: CC(Cc1cccc2[nH]ccc12)Nc1c(Cl)cnc2ccc(-c3cnc(C(C)(C)O)nc3)cc12 (racemic)
IC50: 1000 to 10000 nM
//
MOLECULE: Cc1nc2cc(F)c(-c3cnc(C(C)(C)O)nc3)nc2c(N[C@@H](c2cc(C(O)CO)ccc2F)C(F)F)c1Cl (stereo partly drawn)
IC50: < 1000 nM
//
MOLECULE: CC(Nc1c(Cl)cnc2ccc(-c3cnc(C(C)(C)O)nc3)cc12)c1ccccc1Cl (racemic)
IC50: < 1000 nM
//
MOLECULE: Cc1nc2ccc(-c3cnc(C(C)(C)O)nc3)cc2c(N[C@H](C)c2cc(CC(=O)O)ccc2F)c1Cl
IC50: < 1000 nM
//
MOLECULE: Cc1nc2ccc(-c3cnc(C(C)(C)O)nc3)cc2c(N[C@H](C)c2cc(NC(=O)OC(C)(C)C)ccc2F)c1Cl
IC50: < 1000 nM

Q) Fill in reported IC50 for this entry: CC(C)(O)c1ncc(-c2ccc3ncc(Cl)c(NC(CCO)c4ccccc4F)c3c2)cn1 (racemic)
A) < 1000 nM

Q) Fill in reported IC50 for this entry: Cc1nc2c(F)cc(-c3cnc(C(C)(C)O)nc3)cc2c(N[C@H](C)c2cc(C(N)=O)ccc2F)c1Cl
A) < 1000 nM

Q) Fill in reported IC50 for this entry: CC(C)(O)c1ccc(-c2cc3c(NC4(c5ccccc5F)CC4)c(Cl)cnc3cc2F)cc1
A) 1000 to 10000 nM

Q) Fill in reported IC50 for this entry: C[C@@H](Nc1c(Cl)cnc2ccc(-c3cnc(C(C)(C)O)nc3)cc12)c1cc(C(O)CO)ccc1F (single isomer, unassigned) [Example 401]
A) < 1000 nM
